This collection of values is drawn from patent US11491165B2.

Study Target: vasopressin 1a receptor (V1aR) (Homo sapiens)
Construct: expressed in transfected cells
Sequence (P37288 whole entry): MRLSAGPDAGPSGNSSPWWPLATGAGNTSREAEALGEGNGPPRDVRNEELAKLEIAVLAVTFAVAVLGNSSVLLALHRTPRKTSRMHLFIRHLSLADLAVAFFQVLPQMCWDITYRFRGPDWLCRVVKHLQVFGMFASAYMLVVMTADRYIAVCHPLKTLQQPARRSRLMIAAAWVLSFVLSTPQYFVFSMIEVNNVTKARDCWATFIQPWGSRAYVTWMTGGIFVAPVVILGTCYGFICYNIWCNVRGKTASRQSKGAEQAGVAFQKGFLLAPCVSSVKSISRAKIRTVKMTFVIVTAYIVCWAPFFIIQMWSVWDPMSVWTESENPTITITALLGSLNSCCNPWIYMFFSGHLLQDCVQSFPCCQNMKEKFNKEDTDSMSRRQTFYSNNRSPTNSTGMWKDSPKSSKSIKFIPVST
Assay: IP1 accumulation assay, V1aR-expressing HEK-293 cells (agonist and antagonist assessment)
Type: cell-based
Experimental Parameters: antagonist assessment vs AVP 25 nM (~EC70), IP1
Procedure: Cells were subsequently maintained in 10% DMEM containing hygromycin (80 μg/ml), penicillin (100 U/ml), streptomycin (0.1 mg/ml) and blasticidine S hydrochloride (15 μg/ml). Cells were incubated in tetracycline (2 μg/mL) for 48 h to induce receptor expression. […] The contents of each well were transferred to a white-walled proxy plate (Perkin Elmer) and fluorescence read using a Pherastar Microplate reader (BMG Labtech, Cary, N.C., USA). […]
Endpoint Label: IC50 (nM)
One number for each entry, in nM.

Field: example entries. Status: answers known.
COc1cccc(C(=O)N2Cc3cnn(C)c3Nc3ccccc32)c1: 746
Cn1ncc2c1Nc1ccccc1N(C(=O)c1cc(O)cc(O)c1)C2: 205
Cn1ncc2c1Nc1ccccc1N(C(=O)c1cc(F)cc(F)c1)C2: 2210

In: Form field: reported IC50 of `Cc1ccc(C(=O)N2Cc3cnn(C)c3Nc3ccccc32)cc1F`
Out: 1140
